Reference source: patent US8349827B2

Target: ABL (Homo sapiens)
Sequence (P00519 whole entry): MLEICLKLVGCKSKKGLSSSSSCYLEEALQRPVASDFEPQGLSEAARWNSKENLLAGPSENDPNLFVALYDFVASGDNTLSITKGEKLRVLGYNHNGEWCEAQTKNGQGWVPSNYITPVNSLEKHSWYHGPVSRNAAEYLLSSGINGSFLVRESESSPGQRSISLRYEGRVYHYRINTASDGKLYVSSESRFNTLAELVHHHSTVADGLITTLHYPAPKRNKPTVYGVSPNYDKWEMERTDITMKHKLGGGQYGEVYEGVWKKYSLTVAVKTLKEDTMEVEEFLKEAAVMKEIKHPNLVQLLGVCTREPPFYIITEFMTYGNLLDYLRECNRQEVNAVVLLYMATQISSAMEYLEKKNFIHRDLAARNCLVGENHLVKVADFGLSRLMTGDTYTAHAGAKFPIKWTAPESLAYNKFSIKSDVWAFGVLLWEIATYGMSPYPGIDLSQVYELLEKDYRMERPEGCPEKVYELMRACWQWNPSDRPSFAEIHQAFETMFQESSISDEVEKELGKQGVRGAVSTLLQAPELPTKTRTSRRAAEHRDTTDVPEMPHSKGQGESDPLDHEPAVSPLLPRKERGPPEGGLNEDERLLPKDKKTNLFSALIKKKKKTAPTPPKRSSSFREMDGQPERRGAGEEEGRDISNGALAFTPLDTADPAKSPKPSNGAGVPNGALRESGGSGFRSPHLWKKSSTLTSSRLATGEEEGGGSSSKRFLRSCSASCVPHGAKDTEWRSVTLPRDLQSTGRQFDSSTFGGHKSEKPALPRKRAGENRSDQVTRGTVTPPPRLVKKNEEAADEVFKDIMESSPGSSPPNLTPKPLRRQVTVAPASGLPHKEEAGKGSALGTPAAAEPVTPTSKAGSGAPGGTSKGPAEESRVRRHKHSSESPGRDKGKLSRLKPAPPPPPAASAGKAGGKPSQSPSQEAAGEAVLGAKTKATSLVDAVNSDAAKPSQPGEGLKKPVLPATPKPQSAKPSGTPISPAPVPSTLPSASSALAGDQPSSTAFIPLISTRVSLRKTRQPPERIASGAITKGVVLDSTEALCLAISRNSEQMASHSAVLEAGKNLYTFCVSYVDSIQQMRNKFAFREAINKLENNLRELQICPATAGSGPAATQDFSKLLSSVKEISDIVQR
Experiment: ABL Kinase Activity Assay (Elisa), ABL
Type: biochemical
Settings: ATP 100 μM, read-out: Abl Enzymetic assay (Elisa) % inhibition
Measured property: inhibition at 10 µM

The reported inhibition at 10 µM of the compound Cc1cccc(CNc2ncc3c(n2)-c2cccnc2Nc2cnccc2-3)c1 was 80 to 100%

The reported inhibition at 10 µM of the compound Fc1ccc(CNc2ncc3c(n2)-c2cccnc2Nc2cnccc2-3)cc1F was 80 to 100%

The reported inhibition at 10 µM of the compound c1cnc2c(c1)-c1nc(NCCCN3CCCC3)ncc1-c1ccncc1N2 was 50 to 79%

The reported inhibition at 10 µM of the compound OCCc1ccc(Nc2ncc3c(n2)-c2cccnc2Nc2ccccc2-3)cc1 was < 50%

The reported inhibition at 10 µM of the compound c1ccc(OCCNc2ncc3c(n2)-c2cccnc2Nc2cnccc2-3)cc1 was 80 to 100%
